- PROCEDURE SUMMARY: Plasma and urine pharmacokinetics (HPLC-UV) in patients after 60-min IV infusion
- Format: in vivo, human
- TEST PARAMETERS: human, plasma, intravenous, 10 mg, patient no. 13; 10 mg m-2; day 1 course 1; two-compartment model; read-out: MRT
REPORTED METRIC: MRT

Challenge: // lookup MRT for C[C@@](O)(/C=C/[C@H]1CC=CC(=O)O1)[C@@H](C[C@@H](O)\C=C/C=C\C=C\CO)OP(=O)(O)O
Response given: 55.2 min

* * *

- PROCEDURE SUMMARY: Plasma and urine pharmacokinetics (HPLC-UV) in patients after 60-min IV infusion
- Assay type: in vivo, human
- TEST PARAMETERS: human, plasma, intravenous, 2 mg, patient no. 1; 2 mg m-2; day 1 course 1; one-compartment model; read-out: t1/2 (converted)
REPORTED METRIC: half-life (min)
Respond with the bare value in min.

Challenge: // lookup half-life for C[C@@](O)(/C=C/[C@H]1CC=CC(=O)O1)[C@@H](C[C@@H](O)\C=C/C=C\C=C\CO)OP(=O)(O)O
Response given: 36

* * *

- PROCEDURE SUMMARY: Plasma and urine pharmacokinetics (HPLC-UV) in patients after 60-min IV infusion
- Type: in vivo, human
- TEST PARAMETERS: human, plasma, intravenous, 12.2 mg, patient no. 16; 12.2 mg m-2; day 1 course 1; two-compartment model; read-out: t1/2 (terminal) (converted)
REPORTED METRIC: half-life
Report as: number unit

Challenge: // lookup half-life for C[C@@](O)(/C=C/[C@H]1CC=CC(=O)O1)[C@@H](C[C@@H](O)\C=C/C=C\C=C\CO)OP(=O)(O)O
Response given: 1.17 h

* * *

- PROCEDURE SUMMARY: Plasma and urine pharmacokinetics (HPLC-UV) in patients after 60-min IV infusion
- Assay type: in vivo, human
- TEST PARAMETERS: human, plasma, intravenous, 2 mg, patient no. 1; 2 mg m-2; day 1 course 1; observed value
REPORTED METRIC: Cmax (ng/mL)
Respond with the bare value in ng/mL.

Challenge: // lookup Cmax for C[C@@](O)(/C=C/[C@H]1CC=CC(=O)O1)[C@@H](C[C@@H](O)\C=C/C=C\C=C\CO)OP(=O)(O)O
Response given: 495

* * *

- PROCEDURE SUMMARY: Plasma and urine pharmacokinetics (HPLC-UV) in patients after 60-min IV infusion
- Assay type: in vivo, human
- TEST PARAMETERS: human, plasma, intravenous, 6.6 mg, patient no. 12; 6.6 mg m-2; day 1 course 1; two-compartment model; read-out: t1/2 (terminal) (converted)
REPORTED METRIC: half-life (h)
Respond with the bare value in h.

Challenge: // lookup half-life for C[C@@](O)(/C=C/[C@H]1CC=CC(=O)O1)[C@@H](C[C@@H](O)\C=C/C=C\C=C\CO)OP(=O)(O)O
Response given: 1.22

* * *

- PROCEDURE SUMMARY: Plasma and urine pharmacokinetics (HPLC-UV) in patients after 60-min IV infusion
- Assay type: in vivo, human
- TEST PARAMETERS: human, plasma, intravenous, 20 mg, patient no. 19; 20 mg m-2; sampling on day 1 of course 2; two-compartment model
REPORTED METRIC: AUC

Challenge: // lookup AUC for C[C@@](O)(/C=C/[C@H]1CC=CC(=O)O1)[C@@H](C[C@@H](O)\C=C/C=C\C=C\CO)OP(=O)(O)O [fostriecin]
Response given: 4450 ng·h/mL
